Tested on: LOX IMVI melanoma
testSummary: NCI tumour cell line growth inhibition, 48 h
quantityMeasured: TGI (µM)
Give the quantity in µM, number only.

These recorded examples may help you get a feel for the data.
compoundStructure	quantityMeasured	observedResult
CCOC(=O)c1c[nH]cc1-c1cn(S(=O)(=O)c2ccccc2)cc1C	TGI	71.9
O=C(NC1CCCCC1)NS(=O)(=O)c1ccc(-n2nc3c(c2-c2ccc(Cl)cc2)Cc2ccccc2-3)cc1	TGI	4.12
O=C(NCCNc1nccc(-c2c(-c3ccc(F)cc3)nc3sccn23)n1)c1ccccc1	TGI	31.4

For the next question, use this compound.
Please state recorded TGI (tested on LOX IMVI melanoma) of CC(C)n1c(=O)n(C)c2cnc3cc(F)c(-c4ccc(OCCCN5CCCCC5)nc4)cc3c21
16.6
